# target: yeast plasma membrane H+-ATPase Pma1p (Saccharomyces cerevisiae)
# Construct: made in house; host or cells: S. cerevisiae strain RS-72 (chromosomal PMA1 under GAL1 promoter, repressed on glucose), plasma membranes isolated
# Sequence (P05030 whole entry): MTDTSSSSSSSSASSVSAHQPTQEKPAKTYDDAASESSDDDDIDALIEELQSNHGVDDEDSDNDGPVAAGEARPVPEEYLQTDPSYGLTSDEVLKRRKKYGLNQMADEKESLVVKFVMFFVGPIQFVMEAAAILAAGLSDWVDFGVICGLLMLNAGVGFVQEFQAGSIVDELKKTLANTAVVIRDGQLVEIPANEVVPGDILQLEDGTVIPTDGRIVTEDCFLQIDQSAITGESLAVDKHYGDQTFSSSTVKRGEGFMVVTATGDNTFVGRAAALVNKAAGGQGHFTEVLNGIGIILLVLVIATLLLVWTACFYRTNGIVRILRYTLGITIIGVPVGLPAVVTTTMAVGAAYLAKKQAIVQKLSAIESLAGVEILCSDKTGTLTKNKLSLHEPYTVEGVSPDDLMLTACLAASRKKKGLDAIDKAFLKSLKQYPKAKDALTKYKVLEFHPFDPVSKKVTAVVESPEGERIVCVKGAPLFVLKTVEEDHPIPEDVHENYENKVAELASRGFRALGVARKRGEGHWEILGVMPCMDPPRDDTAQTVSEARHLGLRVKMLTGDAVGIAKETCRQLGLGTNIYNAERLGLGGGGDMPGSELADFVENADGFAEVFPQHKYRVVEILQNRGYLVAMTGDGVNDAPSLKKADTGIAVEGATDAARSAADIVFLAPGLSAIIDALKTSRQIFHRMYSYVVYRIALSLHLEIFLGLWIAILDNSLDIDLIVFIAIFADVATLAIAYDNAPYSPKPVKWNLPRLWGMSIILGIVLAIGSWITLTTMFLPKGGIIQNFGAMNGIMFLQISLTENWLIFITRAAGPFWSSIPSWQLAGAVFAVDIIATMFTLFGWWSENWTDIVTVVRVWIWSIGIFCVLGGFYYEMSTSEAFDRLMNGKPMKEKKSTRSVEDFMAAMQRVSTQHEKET
# procedureDetails: ATP hydrolysis (Baginski) assay on Pma1p in yeast plasma membranes
# Assay type: biochemical, S. cerevisiae
# maps each entry to its IC50
Dear colleague, please send the value followed by its unit.

COc1cc(/C=C/C(=O)/C=C(O)/C=C/c2ccc(O)cc2)ccc1O = 28.9 µM

Now consider the entry below.
Lab entry: yeast plasma membrane H+-ATPase Pma1p (Saccharomyces cerevisiae) assay, compound COc1cc(/C=C/C(=O)/C=C(O)/C=C/c2ccc(O)c(OC)c2)ccc1O , IC50 = 76.1 µM
